B1: HDV Ribozyme (parent)
chain: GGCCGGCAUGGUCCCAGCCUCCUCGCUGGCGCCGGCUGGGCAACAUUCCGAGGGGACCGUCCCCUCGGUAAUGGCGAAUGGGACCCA

Variants of: B1
TEST: self-cleavage, relative activity (ratio to wild type); higher = more cleavage; co-transcriptional
Please assign a class to every record based on measured self-cleavage, with ranges low group = under 0.2, middle group = from 0.2 up to 0.4, high group = 0.4 and over

Ask: Classify this variant: C14A U69G
Result: high group
